# Lookup of reported LC retention time keyed by entry
test: RP, Phenomenex Kinetex C18, 150 × 2.1 mm, 1.7 µm, 30 °C, 0.3 mL/min, estimated dead time 1.1 min; A: water + 0.1% formic acid, pH 3; B: acetonitrile + 0.1% formic acid, pH 3; gradient (min/%B) 0/2 14/100 17/100 17.1/2 25/2; details: stereoisomer not certain
Give just the number in min; leave the unit off.

Look up LC retention time for this compound: CC(CCC(=O)NCCS(=O)(=O)O)C1CCC2C3CCC4CC(O)CCC4(C)C3CCC12C (stereo not given)
9.43

Need LC retention time of NC(=O)CCCCC1CCSS1 (stereo not given) [LIPOAMIDE] , thanks.
6.87

Report LC retention time for COc1ccc2[nH]cc(CCNC(C)=O)c2c1 please.
6.37

Looking for the measured LC retention time of CC12CCC(=O)C=C1CCC1C2C(=O)CC2(C)C1CCC2(O)C(=O)CO (stereo not given) , can you help?
7.28

LC retention time lookup needed for CC(=O)NC(CCC(=O)O)C(=O)O (stereo not given) [N-ACETYLGLUTAMATE] , thanks.
1.9

====

test: HILIC, Waters ACQUITY UPLC BEH Amide, 150 × 2.1 mm, 1.7 µm, 40 °C, 0.5 mL/min, estimated dead time 0.66 min; A: 5% water + 95% acetonitrile; B: 70% water + 30% acetonitrile + 10 mM ammonium formate, pH 6.5; gradient (min/%B) 0/0 2/0 20/70 23/70 24/0 31/0; details: stereoisomer not certain
MEASURED_PROPERTY: LC retention time (min)
# output: bare number, implied unit min

>>> measured_result("CC1(O)CCOC(=O)C1 (stereo not drawn)")
0.89
>>> measured_result("Nc1ncnc2c1ncn2C1CC(O)C(CO)O1 (stereo not drawn)")
2.91
>>> measured_result("Nc1nc2nccnc2c(=O)[nH]1")
4.43
>>> measured_result("O=C(O)c1ccnc2ccccc12 [4-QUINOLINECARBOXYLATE]")
2.82
>>> measured_result("O=C(O)CCC(=O)O [SUCCINATE]")
3.9

LC retention time for Cc1ncc(CO)c(C=O)c1O ?
1.81

====

test: HILIC, Waters ACQUITY UPLC BEH Amide, 150 × 2.1 mm, 1.7 µm, 40 °C, 0.5 mL/min, estimated dead time 0.66 min; A: 5% water + 95% acetonitrile; B: 70% water + 30% acetonitrile + 10 mM ammonium formate, pH 6.5; gradient (min/%B) 0/0 2/0 20/70 23/70 24/0 31/0; details: stereoisomer not certain
Class assignment keyed on LC retention time, ranges bin 0: < 1 min; bin 1: ≥ 1 min and < 6 min; bin 2: ≥ 6 min

Classify this molecule: CCCCCCCCCCCC(=O)OC(CC(=O)[O-])C[N+](C)(C)C (stereo not drawn) [LAUROYLCARNITINE]
bin 2

Band for the recorded LC retention time of C[N+](C)(C)CC(CC(=O)[O-])OC(=O)CCCC(=O)O (stereo not drawn) [GLUTARYLCARNITINE] ?
bin 2

Any idea which band NC(CCO)C(=O)O (stereo not drawn) [HOMOSERINE] is in?
bin 2

// return the class label for Nc1ccn(C2CC(O)C(CO)O2)c(=O)n1 (stereo not drawn) [DEOXYCYTIDINE]
bin 1

For this molecule, which bin applies? OCC(O)C(O)CO (stereo not drawn) [ERYTHRITOL]
bin 1

====

test: RP, Phenomenex Kinetex C18, 150 × 2.1 mm, 1.7 µm, 30 °C, 0.3 mL/min, estimated dead time 1.1 min; A: water + 0.1% formic acid, pH 3; B: acetonitrile + 0.1% formic acid, pH 3; gradient (min/%B) 0/2 14/100 17/100 17.1/2 25/2; conditions: stereoisomer not certain
Rule for this label: TRUE means LC retention time is less than 5 min; FALSE means LC retention time is at least 5 min.

>>> group("N[C@@H](Cc1cc(I)c(Oc2ccc(O)cc2)c(I)c1)C(=O)O")
"FALSE"
>>> group("CCOC(=O)Cc1c[nH]c2ccccc12 [ETHYL 3-INDOLEACETATE]")
"FALSE"
>>> group("CC(O)C(O)C1=Nc2c(nc(N)[nH]c2=O)NC1 (stereo not given) [DIHYDROBIOPTERIN]")
"TRUE"

Turning now to a further record.
Check if LC retention time falls below 5 min for O=C(O)Cc1c[nH]c2ccc(O)cc12 [5-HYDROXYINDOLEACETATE] .
TRUE

====

Below, each of the compounds is paired with its reported LC retention time value.
test: HILIC, Merck SeQuant ZIC-pHILIC, 150 × 2.1 mm, 5 µm, 40 °C, 0.3 mL/min, estimated dead time 1.1 min; A: acetonitrile; B: water + 2.8 mM ammonium formate, pH 9; gradient (min/%B) 0/5 1/5 10/51 13/51 13.1/5 20/5; settings: stereoisomer not certain
The response must be a number in min with no trailing unit.

>>> measured_result("COc1ccc2[nH]cc(CCNC(C)=O)c2c1 [MELATONIN]")
1.36

Fill blank: measured LC retention time of the compound OCC(O)c1ccc(O)c(O)c1 (centres undefined) [3,4-DIHYDROXYPHENYLGLYCOL] is ____.
6.22

Query (compound): O=C(O)C1OC(OP(=O)(O)OP(=O)(O)OCC2OC(n3ccc(=O)[nH]c3=O)C(O)C2O)C(O)C(O)C1O (centres undefined) [URIDINE DIPHOSPHATE GLUCURONIC ACID] ; field requested: LC retention time
11

Consider the compound NC(C(=O)O)C(O)C(O)C(O)CO (centres undefined) [GLUCOSAMINATE] and give its measured LC retention time.
9.91

May I ask what LC retention time has been recorded for Nc1ccn(C2OC(COP(=O)(O)OP(=O)(O)O)C(O)C2O)c(=O)n1 (centres undefined) [CYTIDINE DIPHOSPHATE] ?
10.2

Quick check: LC retention time of O=CNCC(=O)O [N-FORMYLGLYCINE] ?
7.76

Which LC retention time value is on record for O=C([O-])CCc1ccccc1O [3-(2-HYDROXYPHENYL)PROPANOATE] ?
2.12

Query (compound): N[C@@H](Cc1cc(I)c(Oc2ccc(O)cc2)c(I)c1)C(=O)O [3,5-DIIODO-L-THYRONINE] ; field requested: LC retention time
6.36

What measured LC retention time goes with NC(CCCC(N)C(=O)O)C(=O)O (centres undefined) [DIAMINOPIMELATE] ?
10.5

====

experiment: RP, Phenomenex Kinetex C18, 150 × 2.1 mm, 1.7 µm, 30 °C, 0.3 mL/min, estimated dead time 1.1 min; A: water + 0.1% formic acid, pH 3; B: acetonitrile + 0.1% formic acid, pH 3; gradient (min/%B) 0/2 14/100 17/100 17.1/2 25/2; settings: stereoisomer not certain
MEASURED_PROPERTY: LC retention time
Please state the value followed by its unit.

>>> measured_result("O=C(O)CCCCCC(=O)O [6-CARBOXYHEXANOATE]")
"4.73 min"
>>> measured_result("O=C(O)CC(O)C(=O)O (stereo not given) [MALATE]")
"2.8 min"
>>> measured_result("Nc1nc2nc[nH]c2c(=O)[nH]1 [GUANINE]")
"1.44 min"
>>> measured_result("O=C(O)c1ccc2ccccc2n1 [2-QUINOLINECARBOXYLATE]")
"4.39 min"
>>> measured_result("CC(C)=CCCC(C)=CCCC(C)=CCCC(C)=CCCC(C)=CCCC(C)=CCCC(C)=CCC1=C(C)C(=O)c2ccccc2C1=O [MENAQUINONE]")
"11.9 min"

Endpoint output: LC retention time of O=C(O)c1ccc(=O)[nH]c1 [6-HYDROXYNICOTINATE] . Value?
2.76 min

# query: LC retention time of entry NC(Cc1cc(I)c(Oc2ccc(O)c(I)c2)c(I)c1)C(=O)O (stereo not given) [LIOTHYRONINE]
7.42 min

What LC retention time value was documented for this compound, O=C(O)CCCCC1SCC2NC(=O)NC21 (stereo not given) [BIOTIN] ?
4.98 min

For the compound Cn1c(=O)[nH]c2ncn(C)c2c1=O [PARAXANTHINE] , what LC retention time is on record?
4.04 min

====

As shown below, each of these molecules has a reported LC retention time value.
test: RP, Phenomenex Kinetex C18, 150 × 2.1 mm, 1.7 µm, 30 °C, 0.3 mL/min, estimated dead time 1.1 min; A: water + 0.1% formic acid, pH 3; B: acetonitrile + 0.1% formic acid, pH 3; gradient (min/%B) 0/2 14/100 17/100 17.1/2 25/2; details: stereoisomer not certain

So what's the measured LC retention time for this one? CSc1ncnc2nc[nH]c12 [THIOPURINE S-METHYLETHER]
4.64 min

Request the reported LC retention time associated with Cn1c(=O)c2[nH]cnc2n(C)c1=O [THEOPHYLLINE]
4.07 min

Which LC retention time value belongs to CC12CCC(=O)C=C1CCC1C2C(O)CC2(C)C(C(=O)CO)CCC12 (stereo not given) [CORTICOSTERONE] ?
8.14 min

Bench note: what LC retention time did O=C(O)c1cccnc1C(=O)O [QUINOLINATE] show?
1.5 min

State the recorded LC retention time for this entry: CC(C)(CO)C(O)C(=O)NCCC(=O)O (stereo not given) [PANTOTHENATE]
3.49 min
